List of kon values.
assayTarget: Recombinant human his-tagged IGF R extracellular domain protein (human) (UniProt P08069)
experimentDescription: SPR, Ab captured via anti-huIgG Fc, pH 7.4
reportedEndpoint: kon (M⁻¹ s⁻¹)

binder: VRDN-02050 (antibody, V domains shown) VH: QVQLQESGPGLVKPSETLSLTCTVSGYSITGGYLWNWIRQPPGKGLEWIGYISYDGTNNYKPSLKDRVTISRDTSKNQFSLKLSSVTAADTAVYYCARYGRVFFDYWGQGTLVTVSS VL: DIVMTQSPLSLPVTPGEPASISCRSSQSIVHSNGNTYLQWYLQKPGQSPQLLIYKVSNRLHGVPDRFSGSGSGTDFTLKISRVEAEDVGVYYCFQGSHVPWTFGQGTKVEIK
reportedEndpoint: kon
measuredNumber: 111000
--
binder: VRDN-02006 (antibody, V domains shown) VH: QVQLQESGPGLVKPSETLSLTCTVSGYSITHGYLWNWIRQPPGKGLEWIGYISYDGTNNYKPSLKDRVTISRDTSKNQFSLKLSSVTAADTAVYYCARYGRVFFDYWGQGTLVTVSS VL: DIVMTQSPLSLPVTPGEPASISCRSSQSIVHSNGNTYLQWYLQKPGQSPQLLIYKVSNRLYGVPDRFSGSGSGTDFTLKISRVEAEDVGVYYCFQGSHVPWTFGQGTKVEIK
reportedEndpoint: kon
measuredNumber: 78500
--
binder: VRDN-02044 (antibody, V domains shown) VH: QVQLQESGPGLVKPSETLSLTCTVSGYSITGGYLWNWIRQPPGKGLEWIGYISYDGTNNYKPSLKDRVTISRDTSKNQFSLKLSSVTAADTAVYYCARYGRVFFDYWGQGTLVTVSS VL: DIVMTQSPLSLPVTPGEPASISCRSSQSIVHSNGNTYLQWYLQKPGQSPQLLIYHVSNRLYGVPDRFSGSGSGTDFTLKISRVEAEDVGVYYCFQGSHVPWTFGQGTKVEIK
reportedEndpoint: kon
measuredNumber: 85200
--
binder: VRDN-02045 (antibody, V domains shown) VH: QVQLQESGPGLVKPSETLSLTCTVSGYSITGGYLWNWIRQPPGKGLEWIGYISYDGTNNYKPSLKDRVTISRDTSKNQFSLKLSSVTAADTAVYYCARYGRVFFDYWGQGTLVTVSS VL: DIVMTQSPLSLPVTPGEPASISCRSSQSIVHSNGNTYLQWYLQKPGQSPQLLIYKHSNRLYGVPDRFSGSGSGTDFTLKISRVEAEDVGVYYCFQGSHVPWTFGQGTKVEIK
reportedEndpoint: kon
measuredNumber: 59200
--
binder: VRDN-02034 (antibody, V domains shown) VH: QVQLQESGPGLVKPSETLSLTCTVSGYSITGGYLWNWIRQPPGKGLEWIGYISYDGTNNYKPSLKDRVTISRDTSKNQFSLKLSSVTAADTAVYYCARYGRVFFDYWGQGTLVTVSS VL: DIVMTQSPLSLPVTPGEPASISCRSSQSHVHSNGNTYLQWYLQKPGQSPQLLIYKVSNRLYGVPDRFSGSGSGTDFTLKISRVEAEDVGVYYCFQGSHVPWTFGQGTKVEIK
reportedEndpoint: kon
measuredNumber: 101000

Value source: patent US20240360227A1
